system: S. cerevisiae Burl-1 ts mutant growth, BacTiter-Glo, 38.5C 24 h; assay: restored growth of temperature-sensitive Burl-1 yeast – whole organism, S. cerevisiae, Burl-1 ts mutant, luminescence, counter-screen for SUMOylation pathway inhibitor project, dose response (AID 463199)
Activity calls are given as the source filed them.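 The calls were made as follows: active = AC50, the dose giving half-maximal effect, exceeds a fixed cutoff for a compound that rescues yeast growth under heat; inactive = the rest, inconclusive results apart.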
Permitted responses: true (1) = active, false (0) = inactive

Examples with answers:
| compound | system | class assignment |
| --- | --- | --- |
| CCCOc1ccccc1C1NC(=O)NC(C)=C1C(=O)OCCOCC (centres undefined) | S. cerevisiae Burl-1 ts mutant growth, BacTiter-Glo, 38.5C 24 h | false (0) |
| COc1ccc(-c2cc(C(=O)Nc3cc(C)ccc3O)no2)cc1 | S. cerevisiae Burl-1 ts mutant growth, BacTiter-Glo, 38.5C 24 h | false (0) |
| O=C(Cc1ccc(F)cc1)Nc1nc(-c2ccc(F)cc2)cs1 | S. cerevisiae Burl-1 ts mutant growth, BacTiter-Glo, 38.5C 24 h | false (0) |

--- query ---
// query What is the recorded call for this compound in the test? `O=c1[nH]c(CN2CCN(CCO)CC2)nc2ccccc12`
// result false (0)

###

test system: S. cerevisiae Burl-1 ts mutant growth, BacTiter-Glo, 38.5C 24 h; assay: restored growth of temperature-sensitive Burl-1 yeast – whole organism, S. cerevisiae, Burl-1 ts mutant, luminescence, counter-screen for SUMOylation pathway inhibitor project, dose response (AID 463199)
The source made the active and inactive calls.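 Rule for the calls: active = AC50, the dose giving half-maximal effect, exceeds a fixed cutoff for a compound that rescues yeast growth under heat; inactive = the rest, inconclusive results apart.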
Permitted responses: active, inactive

| compound | class assignment |
| --- | --- |
| O=C(O)C1C2CCCCC2=C2CCCCC2C1C(=O)c1ccccc1 (stereo not given) | inactive |
| CN(C(=O)c1ccncc1)c1nnc(-c2cnccn2)s1 | inactive |
| Cc1ccc(C(=O)/C=C/Nc2ccccc2C(N)=O)cc1 | inactive |
| CSc1nsc(SCC(=O)Nc2cccc(C(=O)O)c2)n1 | inactive |

// query What is the recorded call for this compound in the test? `Cc1nc2ccc(NC(=O)c3ccc(S(=O)(=O)N4CCOCC4)cc3)cc2s1`
// result inactive

// query What is the recorded call for this compound in the test? `COc1ccc(C(=O)OCC(=O)c2ccc(C)c(S(=O)(=O)N3CCOCC3)c2)cc1OC`
// result inactive

// query What is the recorded call for this compound in the test? `Clc1ccc(N=c2ssnc2Cl)nc1`
// result inactive

###

tested on: S. cerevisiae Burl-1 ts mutant growth, BacTiter-Glo, 38.5C 24 h; assay: restored growth of temperature-sensitive Burl-1 yeast – whole organism, S. cerevisiae, Burl-1 ts mutant, luminescence, counter-screen for SUMOylation pathway inhibitor project, dose response (AID 463199)
Active and inactive are the calls of the source.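 How the source made its calls: active means AC50, the dose giving half-maximal effect, exceeds a fixed cutoff for a compound that rescues yeast growth under heat; inactive means the rest, inconclusive results apart.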
assay readout: AC50

Reference set (2 entries):
| compound | observed value |
| --- | --- |
| COc1ccc(Cn2nnnc2CN2CCN(c3ccc(OC)cc3)CC2)cc1 | > 42 µM (inactive) |
| COCCNC(=O)C(c1ccc(C)cc1)N(C(=O)CCC(=O)Nc1ccccn1)c1cccc(C)c1 (stereo unspecified) | > 42 µM (inactive) |

AC50 recorded for this compound, `O=c1cc(COc2ncnc3ccccc23)nc2sccn12` , is > 42 µM (inactive)

AC50 recorded for this compound, `Cc1ccc2nc(SCC(=O)Nc3cccc(S(N)(=O)=O)c3)[nH]c2c1` , is > 42 µM (inactive)

AC50 recorded for this compound, `COc1cc(/C=N/NC(=O)c2ccncc2)ccc1OC(=O)c1ccco1` , is > 42 µM (inactive)

AC50 recorded for this compound, `O=C(CN1CCN(C(=O)c2ccccc2)CC1)Nc1ncc(Br)cc1Br` , is > 42 µM (inactive)

AC50 recorded for this compound, `COCC(=O)n1nc(-c2ccc(Cl)cc2)nc1NCc1ccc(F)cc1` , is > 42 µM (inactive)

AC50 recorded for this compound, `Clc1ccccc1-c1ccc2ncnc(NCc3cccs3)c2c1` , is > 42 µM (inactive)
